For each record, write down the corresponding CHO-1A-13 IA.
- Study Target: alpha 1A adrenoceptors (Homo sapiens)
- Construct: expressed in transfected cells; host or cells: CHO-K1 (clone 13)
- Sequence (P35348 whole entry): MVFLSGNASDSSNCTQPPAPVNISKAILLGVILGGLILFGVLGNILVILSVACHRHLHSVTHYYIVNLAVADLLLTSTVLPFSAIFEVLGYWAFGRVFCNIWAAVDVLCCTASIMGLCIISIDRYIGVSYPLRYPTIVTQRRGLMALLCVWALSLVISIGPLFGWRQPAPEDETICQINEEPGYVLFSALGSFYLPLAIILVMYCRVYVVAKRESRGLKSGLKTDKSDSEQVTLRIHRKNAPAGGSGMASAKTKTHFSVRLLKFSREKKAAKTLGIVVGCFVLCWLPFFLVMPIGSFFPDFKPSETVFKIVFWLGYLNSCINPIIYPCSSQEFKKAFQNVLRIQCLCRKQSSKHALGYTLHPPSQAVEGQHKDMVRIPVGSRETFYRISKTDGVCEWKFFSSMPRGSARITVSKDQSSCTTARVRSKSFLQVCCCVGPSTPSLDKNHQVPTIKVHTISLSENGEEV
- Protocol: Functional assay: fluorescent dye (Fluo-3, FLIPR) determination of intracellular calcium in CHO-K1 cells expressing alpha 1A adrenoceptors (clone 13)
- Assay type: cell-based
- Condition Set: intrinsic activity: maximum response relative to norepinephrine bitartrate (full agonist); CHO-K1 alpha 1A clone 13
One number for each entry.

COc1cc(NS(C)(=O)=O)c(OC)cc1CC1=NCCN1 ... 0.27
COc1cc(CC2=NCCN2)c(Cl)cc1NS(C)(=O)=O ... 0.81
CCS(=O)(=O)Nc1ccc(CC2=NCCN2)cc1Cl ... 0.16
COc1cc(NS(C)(=O)=O)ccc1CC1=NCCN1 ... 0.43
COc1cc(CC2=NCCN2)ccc1NS(C)(=O)=O ... 0.92

I am curious: what CHO-1A-13 IA value has been reported for CS(=O)(=O)Nc1ccc(CC2=NCCN2)c2ccoc12 ?
0.65

Numbers sourced from patent US7407980B2.
